# System: SK-OV-3
# measurement description: NCI tumour cell line growth inhibition, 48 h
The source made the active and inactive calls. Rule as the data show it: active = GI50 up to about 1.1 µM and inactive = higher.
# GI50 annotations

Observe how each entry below is paired with its result.
[in] What value of measured GI50 is listed for "COc1ccc(-c2nc(O)c3ccccc3n2)c(OC)c1" ?
[out] > 100 µM (inactive)

[in] Next up: COC(=O)c1ccccc1C1CN=NC12Cc1ccc(C)c(C)c1C2=O (stereo unspecified)
[out] > 100 µM (inactive)

[in] Field entry: "COc1cc2cc[n+]3c4cc(OC)c(OC)cc4c(C)cc3c2cc1OC"
[out] > 100 µM (inactive)

[in] C/C=C1\CC(C(=O)OCC)CCCCCCCCCCC1=O (stereo unspecified) ?
[out] > 100 µM (inactive)

[in] Moving on to O=C(Nc1cccc([N+](=O)[O-])c1)C(=O)C(C(=O)c1ccccc1F)C1OC(=O)C2C=CC=CC21 (stereo unspecified)
[out] 41.3 µM (inactive)

Now, please, on to the next compound.
[in] Find the recorded GI50 belonging to "COc1ccc(NC2=NCCO2)c2c1CCCC2" and report it.
[out] 18.4 µM (inactive)

---

# Tested on: SNB-75
# measurement description: NCI tumour cell line growth inhibition, 48 h
Active and inactive are the calls of the source. Rule as the data show it: active = GI50 up to about 1.1 µM and inactive = higher.
Use one of these outcomes when replying: 1 (active), 0 (inactive)

Some entries whose results are on file:
[in] Kindly provide the recorded test outcome for the following compound: COC(=O)C(C(=O)C(=O)Nc1ccccc1OC)c1csc(-n2nc(-c3ccccc3)cc2-c2ccccc2)n1 (stereo unspecified)
[out] 0

[in] Same lookup for "Cc1c2ccncc2c(C)c2c1[nH]c1ccc(Cl)cc12" , please.
[out] 0

[in] Record: "CCOC(=O)c1nc(C)oc1C(F)(F)F"
[out] 0

[in] Entry to check: "C/C(=N\Nc1nc2cccnc2s1)c1ccccn1"
[out] 1

[in] Entry "CCOC(=O)CCn1ncc(Cl)c(Cl)c1=O" please
[out] 0

***
[in] Given "N=C1C(=N)c2ccccc2-c2ccccc21" , state the outcome it received in this test.
[out] 0

[in] Proceed to NC(=O)c1cccc(OCC(O)CO)c1 (stereo unspecified)
[out] 0

[in] Quick one: "CCOC(=O)/C(=C\n1c(=O)sc2ccccc21)C(=O)c1ccccc1"
[out] 0

[in] Another compound to look at: "CCCNC(=O)Cn1c(-c2ccccc2)cc2ccccc21"
[out] 0

[in] // query: "CSc1nc(O)c2cn(Cc3ccccc3)nc2n1"
[out] 0

[in] // same read-out, input: "CCOC(=O)c1c(SC(=O)C(C)(C)Oc2ccc(Cl)cc2)n(-c2ccccc2)c(=S)n(-c2ccccc2)c1=O"
[out] 0

[in] Same again, this time with Cc1ccc(NC(=O)CC(=O)N2N=C(N(c3ccccc3)c3ccccc3)CC2c2ccccc2)cc1 (stereo unspecified)
[out] 0

[in] Another compound to look at: "O=C(NCCO)c1c(O)c2ccccc2[nH]c1=O"
[out] 0

[in] Same question for CCOC(=O)C(NC(=O)c1ccccc1)(Nc1ccc(S(=O)(=O)Nc2ncccn2)cc1)C(F)(F)F (stereo unspecified) please.
[out] 0

[in] # repeat for "NCCCCN(CCCN)/[N+]([O-])=N\O"
[out] 0

---

# Tested on: ACHN
# measurement description: NCI tumour cell line growth inhibition, 48 h
The source made the active and inactive calls. Rule as the data show it: active = GI50 up to about 1.1 µM and inactive = higher.
// allowed return values: active, inactive

Examples from the recorded data:
[in] Just curious, what result did "COc1cc(Oc2nc3ccccc3nc2C(=O)O)cc(OC)c1OC" get here?
[out] inactive

[in] Next entry: "COc1ccc2c(c1)CCc1c-2nc2cc3c(cc2c1O)OCO3"
[out] inactive

New cases:
[in] Test call for this compound, please: "N#CC(C#N)=Cn1c(=S)[nH]c2ccc([N+](=O)[O-])cc21"
[out] inactive

[in] Same read-out for "O=C(O)c1ccc(C(=O)c2ccccc2C(=O)O)cc1C(=O)O" ?
[out] inactive

[in] Same for O=C(O)C1C2C=CC(O2)C1C(=O)NCc1cccnc1 (stereo unspecified)
[out] inactive

---

# System: PC-3
# measurement description: NCI tumour cell line growth inhibition, 48 h
The source made the active and inactive calls. No stated cut-off is given here; in the data, active = GI50 up to about 1.1 µM and inactive = higher.
value type: GI50

[in] Query: GI50; subject: "CC1(C)C[C@H]2[C@H](O)C(CO)=C3C(=O)[C@@H](O)[C@]3(C)[C@H]2C1"
[out] > 100 µM (inactive)

[in] What do you have for [O-][S+](CC1(O)CCCCC1)c1ccccc1 (stereo not given) ?
[out] > 100 µM (inactive)

[in] Quick one: "N#C[C@H](C(=O)c1ccccc1F)c1nc2ccccc2s1"
[out] 24.2 µM (inactive)

[in] Cool, now CC12CC3OC(=O)C1COC14OC5(C2C1=O)C(O)(CCC1C4CC(O)C2(O)CC=CC(=O)C12C)C(=O)OC35C (stereo not given)
[out] > 100 µM (inactive)

[in] "O=C1C=CC(=O)C(N(CCO)CCO)=C1.O=C1C=CC2(O)OCCN(CCO)C2=C1" , same question.
[out] > 100 µM (inactive)

Continuing:
[in] Requested field: GI50. Item: "O=C(O)CCC(=O)c1ccc2ccc3cccc4ccc1c2c34"
[out] 67.9 µM (inactive)

[in] Another compound to look at: COc1cc([N+](=O)[O-])ccc1N1C(=O)C2c3[nH]c4ccccc4c3C3CCC(C(C)(C)C)CC3C2C1=O (stereo not given)
[out] 38.6 µM (inactive)

[in] Okay, and "O=C1CN(c2ccccc2)Cc2nc(Cl)ccc2N1" ?
[out] 79.4 µM (inactive)

[in] Next entry: Cc1cccc(C)c1NC(=O)/C(CC(=O)CC(c1ccccc1)c1c(O)c2ccccc2oc1=O)=N/O (stereo not given)
[out] > 100 µM (inactive)

[in] Item: CCCCCCCCCCOCCOCCOCCOCCCCC(O)CCCCCCCC1=C[C@H](C)OC1=O (stereo not given in full)
[out] 9.98 µM (inactive)

---

# Tested on: LOX IMVI
# measurement description: NCI tumour cell line growth inhibition, 48 h
Calls of active or inactive are those of the source. Rule as the data show it: active = GI50 up to about 1.1 µM and inactive = higher.
Hello, when you answer, please use one of the following outcomes: class 1 (active), class 0 (inactive)

[in] Fill in: this test's call for "COc1cc(OC)c(-c2oc3ccccc3c(=O)c2O)c(OC)c1" is ___
[out] class 0

---
[in] Test call, this compound: COc1ccc2c(c1)N1CCc3cc(OC)c(OC)cc3C1C2 (stereo not given)
[out] class 0

[in] Query "COc1cc(OC)c(OC)cc1/C=C/c1ccc2ccccc2n1" next
[out] class 0

[in] Item: "CCC1(CC)C(=O)N(C(=O)c2ccccc2)N(C(=O)c2ccc(Cl)cc2)C1=O"
[out] class 0

[in] Continue with COc1ccc(C2CC(=O)c3c(O)cc(O)cc3O2)cc1O (stereo not given)
[out] class 0

[in] Let us now turn to CSc1nc(NC2OC(COC(C)=O)C(OC(C)=O)C(OC(C)=O)C2OC(C)=O)c(-c2csc(N)n2)c(=O)n1C (stereo not given)
[out] class 0

---

# System: UO-31
# measurement description: NCI tumour cell line growth inhibition, 48 h
Calls of active or inactive are those of the source. Rule as the data show it: active = GI50 up to about 1.1 µM and inactive = higher.
Outcome (select one): TRUE = active, FALSE = inactive

[in] Hi team, can someone confirm the assay call for "O=C(NCP(=O)(O)O)c1cccnc1" ?
[out] FALSE

Next:
[in] How did this test come out for "O=C(NC(Cl)(C(F)(F)F)C(F)(F)F)c1ccc(F)cc1" ?
[out] FALSE

[in] And what about the compound "NS(=O)(=O)c1ccc(NC(=O)c2ccc3nc4ccccc4c(Nc4ccc(S(N)(=O)=O)cc4)c3c2)cc1" ?
[out] FALSE

[in] Quick one: "O=C(O)c1[nH]c(C(=O)O)c(CC(F)(F)C(F)(F)C(F)(F)F)c1CC(F)(F)C(F)(F)C(F)(F)F"
[out] FALSE

[in] Record: "CC1(C)C[C@H]2[C@H](O)C(CO)=C3C(=O)[C@@H](O)[C@]3(C)[C@H]2C1"
[out] FALSE

---

# Tested on: RPMI-8226
# measurement description: NCI tumour cell line growth inhibition, 48 h
The source made the active and inactive calls. No stated cut-off is given here; in the data, active = GI50 up to about 1.1 µM and inactive = higher.
Response enum: Y = active, N = inactive

Would you please look over these solved cases?
[in] Test call for this molecule, please: "O=C(NCCO)c1c(O)c2ccccc2[nH]c1=O"
[out] N

[in] Similarly, "CN(C)[C@@H]1C(O)=C(C(=O)NCNc2nc3[nH]nnc3c(=O)[nH]2)C(=O)[C@@]2(O)C(O)=C3C(=O)c4c(O)cccc4[C@@](C)(O)[C@H]3C[C@@H]12" ?
[out] Y

[in] Also check "CC1(C)COCN1COC1CCCCC1"
[out] N

Others:
[in] So what was the verdict on O=CC12C3CCC1C2C(=O)C3 (stereo not drawn) in this test?
[out] N

[in] Check COC1/C(=C\C(=O)OC(C)(C)C)c2ccccc2N1C(C)=O (stereo not drawn) too.
[out] N

[in] Same for CC(=O)OC1CCn2nnc(CO[Si](C)(C)C(C)(C)C)c21 (stereo not drawn)
[out] N

[in] Follow-up entry: "Sc1nnc(-c2ccnc(-c3nnc(S)[nH]3)c2)[nH]1"
[out] N

[in] Field entry: "COC(=O)CCC(=O)NC1=C(NCc2ccccc2)C(=O)c2ccccc2C1=O"
[out] N

[in] "CC1=C(C(=O)Nc2cc(=O)n(C)c(=O)n2C)C(c2ccco2)C(C(=O)Nc2cc(=O)n(C)c(=O)n2C)=C(C)N1" ?
[out] N

[in] What would you report for N#CC(c1ccnc(Cl)n1)c1nc2ccccc2s1 (stereo not drawn) ?
[out] N

[in] Also check "Brc1ccc2c(-c3csc(-c4c[nH]c5ccccc45)n3)c[nH]c2c1"
[out] N

[in] Try Nc1ncnc2c1ncn2C1CC(OCc2ccccc2[N+](=O)[O-])C(CO)O1 (stereo not drawn) next.
[out] N

[in] CNC(=O)NCCCC(NC(C)=O)C(=O)NCc1ccccc1 (stereo not drawn) , same question.
[out] N

[in] Thanks! And N#CC(c1ccccc1)N(CCc1ccccc1)C(=O)Oc1ccccc1 (stereo not drawn) ?
[out] N
